# credit: PubChem BioAssay AID1025

# TESTED TARGET: Cytochrome P450 2C19 (Homo sapiens) (UniProt P33261)
# Sequence (P33261 whole entry, looked up): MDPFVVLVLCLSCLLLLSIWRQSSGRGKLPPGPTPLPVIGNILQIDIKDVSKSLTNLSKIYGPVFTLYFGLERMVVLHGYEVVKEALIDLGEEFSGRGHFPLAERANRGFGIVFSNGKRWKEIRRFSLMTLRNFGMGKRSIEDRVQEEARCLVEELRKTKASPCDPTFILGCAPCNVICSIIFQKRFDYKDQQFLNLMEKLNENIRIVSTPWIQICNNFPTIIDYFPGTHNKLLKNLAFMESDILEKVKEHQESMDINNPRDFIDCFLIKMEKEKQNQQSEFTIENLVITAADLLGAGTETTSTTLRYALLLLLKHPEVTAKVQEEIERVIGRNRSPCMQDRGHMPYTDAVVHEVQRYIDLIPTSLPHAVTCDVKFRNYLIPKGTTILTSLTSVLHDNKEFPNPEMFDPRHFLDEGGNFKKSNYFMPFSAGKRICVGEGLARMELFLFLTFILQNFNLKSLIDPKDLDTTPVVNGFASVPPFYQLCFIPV
# EXPERIMENTAL PROTOCOL: enhancers of cytochrome P450 2C19 turnover – biochemical, luminescence, primary screen (AID 1025);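 note: 0 = wells with 2.5 mM tranylcypromine and 1 = vehicle-only wells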
# CONDITION DESCRIPTION: recombinant CYP2C19, luciferin-H EGE luminescence; at 5 µM; active compounds read high; 0 = fully inhibited enzyme, 1 = untreated enzyme
Fewer than 10 of roughly 96,000 compounds were called active. A selection follows.
ATTRIBUTE MEASURED: activation factor
Format: numeric value only, no unit, no commentary.

Worked cases, activation factor given:
Entry CC1=C(C)CC(C(=O)NNC(=O)c2ccccc2O)C(C(=O)O)C1 (stereo unspecified) , tested on Cytochrome P450 2C19 (Homo sapiens) (UniProt P33261), has a reported activation factor of 1.1

Let me check: CC1CC(C)CN(C(=O)CSc2nnc(CSc3ncccn3)n2C)C1 (stereo unspecified) , system Cytochrome P450 2C19 (Homo sapiens) (UniProt P33261), measured activation factor is 1.1

Param item: `FC(F)(F)c1nnc2ccc(N3CCN(c4ccccc4)CC3)nn12` ; param system: Cytochrome P450 2C19 (Homo sapiens) (UniProt P33261); output activation factor: 0.7

Given the compound Cc1ccc(C2NC(=S)NC3=C2N2CCC3CC2)cc1 (stereo unspecified) and test system Cytochrome P450 2C19 (Homo sapiens) (UniProt P33261), the measured activation factor is 1.1

activation factor for Cytochrome P450 2C19 (Homo sapiens) (UniProt P33261) with input `CCCN1Cc2cccc(C(=O)Nc3ccc(S(=O)(=O)N4CCCCCC4)cc3)c2C1=O` equals 0.8

Now for a further compound.
Param item: `CCCCCN1CC(O)=C(c2nc(-c3ccc(Cl)cc3)cs2)C1=N` ; param system: Cytochrome P450 2C19 (Homo sapiens) (UniProt P33261); output activation factor: 0.9

###

Listing of entries alongside the reported activation factor.
# TESTED TARGET: Cytochrome P450 2C19 (Homo sapiens)
# EXPERIMENTAL PROTOCOL: enhancers of cytochrome P450 2C19 turnover – biochemical, luminescence, primary screen (AID 1025);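 note: 0 = wells with 2.5 mM tranylcypromine and 1 = vehicle-only wells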
# CONDITION DESCRIPTION: recombinant CYP2C19, luciferin-H EGE luminescence; at 5 µM; active compounds read high; 0 = fully inhibited enzyme, 1 = untreated enzyme
In all, about 96,000 compounds went through this assay and fewer than 10 were called active. The list is a sample of the results.
Answer field: number only, no words.

// solved cases for activation factor follow
I looked up `O=C(c1ccccc1Oc1ccccc1)N1CCN(c2ccc(F)cc2)CC1` and its activation factor for Cytochrome P450 2C19 (Homo sapiens) was 0.1

Observed activation factor, Cytochrome P450 2C19 (Homo sapiens), `O=C(N/N=C/c1ccc(O)cc1)/C(=C/c1ccc([N+](=O)[O-])cc1)NC(=O)c1ccccc1` : 0.9

Reported activation factor (Cytochrome P450 2C19 (Homo sapiens)) for entry `CC(C)NC(=O)C(=O)N/N=C/c1ccco1` is 1.1

Here `Nc1nc(C23CC4CC(CC(C4)C2)C3)cs1` was tested on Cytochrome P450 2C19 (Homo sapiens), and its activation factor came to 0.6

activation factor for Cytochrome P450 2C19 (Homo sapiens) with input `CCC(=O)OCc1c(C(F)(F)F)nn(C)c1Oc1cccc(C(F)(F)F)c1` equals 0.4

Bench note, Cytochrome P450 2C19 (Homo sapiens): entry Cc1ccc(C2CC2C(=O)NN)cc1 (stereo not drawn) , its activation factor = 0.5

More entries:
The value of activation factor recorded for `CN1CCN(c2ccc([N+](=O)[O-])c(Sc3nc4ccccc4[nH]3)c2)CC1` when tested on Cytochrome P450 2C19 (Homo sapiens) reads 0.7

Item: CC1(C)CC(CC(=O)O)C(=O)O1 (stereo not drawn) | System: Cytochrome P450 2C19 (Homo sapiens) | activation factor: 1.1

# lookup: `COc1ccc(-c2nc3ccccc3n2CCC(C)C)cc1OC` on Cytochrome P450 2C19 (Homo sapiens), activation factor = 0.4

activation factor on Cytochrome P450 2C19 (Homo sapiens) for `Cc1cc(C(=O)Nc2c(C)nn(Cc3ccccc3)c2C)on1` is 0.9

Result for `CCOc1ccc(S(=O)(=O)NCCSc2ccccc2)cc1` , tested on Cytochrome P450 2C19 (Homo sapiens), activation factor: 0

Cytochrome P450 2C19 (Homo sapiens) assay, molecule CCNC(=O)NC(=O)C(C)OC(=O)c1cc(S(=O)(=O)N2CCCCCC2)ccc1OC (stereo not drawn) , recorded activation factor = 0.3

Cytochrome P450 2C19 (Homo sapiens) assay, molecule `O=C(/C=C\NCC(=O)c1ccccc1)c1ccccc1` , recorded activation factor = 0.5

Param item: `Cc1cccc(C)c1-n1c(C)cc(/C=C2\C(=O)NN(c3ccccc3)C2=O)c1C` ; param system: Cytochrome P450 2C19 (Homo sapiens); output activation factor: 0.6

Assay Cytochrome P450 2C19 (Homo sapiens), sample `Cn1nc(C(F)(F)F)c(C(=O)Nc2cccc(C(F)(F)F)c2)c1SCc1ccc(Cl)cc1` , activation factor read: 0.1

Known value: Cytochrome P450 2C19 (Homo sapiens) activation factor of the molecule `Cc1cccc(C(=O)NCCCN2CCCC2=O)c1` equals 0.8

Record `CCOc1cccc(SCc2noc(C(=O)NC(C)C)c2C(=O)O)c1` ; system Cytochrome P450 2C19 (Homo sapiens); activation factor = 0.9

The molecule `CC(C)CNC(=S)NNC(=O)c1ccccc1OC(F)F` , tested on Cytochrome P450 2C19 (Homo sapiens), showed activation factor of 0.8

// activation factor (Cytochrome P450 2C19 (Homo sapiens)) for `CN(C)S(=O)(=O)c1ccc(N2CCCC2)c(C(=O)NCc2ccccc2)c1` = 0.4

Cytochrome P450 2C19 (Homo sapiens) data for CC(N=Cc1nc(-c2ccccc2)oc1O)c1ccccc1 (stereo not drawn) ; its activation factor: 0.3

Form field activation factor for item `Cc1ccc(CS(=O)(=O)CCC(=O)NC2CC2)cc1` on Cytochrome P450 2C19 (Homo sapiens): 0.9

Record `CSc1nc2ccccc2cc1/C=C(\C#N)c1ccc(Cl)cc1Cl` ; system Cytochrome P450 2C19 (Homo sapiens); activation factor = 0.9

Readout activation factor for O=C(c1ccco1)N1CCN(C(=O)C2CCCN(S(=O)(=O)c3cccc4nsnc34)C2)CC1 (stereo not drawn) , test system Cytochrome P450 2C19 (Homo sapiens), was 1

###

# TESTED TARGET: Cytochrome P450 2C19 (Homo sapiens) (UniProt P33261)
# EXPERIMENTAL PROTOCOL: enhancers of cytochrome P450 2C19 turnover – biochemical, luminescence, primary screen (AID 1025);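 note: 0 = wells with 2.5 mM tranylcypromine and 1 = vehicle-only wells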
# CONDITION DESCRIPTION: recombinant CYP2C19, luciferin-H EGE luminescence; at 5 µM; active compounds read high; 0 = fully inhibited enzyme, 1 = untreated enzyme
In all, about 96,000 compounds went through this assay and fewer than 10 were called active. The list is a sample of the results.
ATTRIBUTE MEASURED: activation factor
Give a plain numeric answer without units written out.

Recorded results for 3 compounds are shown here.
Value of activation factor reported for the compound `O=C(Nc1cccc2ccccc12)c1onc2c1CCCC2` is 0.9

Record summary for `Clc1ccc(COn2c(-c3ccc(Cl)cc3Cl)nc3ncccc32)cc1` : reported activation factor = 0

get_value(item= CC(N)C12CC3CC(CC(O)(C3)C1)C2 (configuration not stated) , readout=activation factor) returns 0.9

Next:
The compound listed as `CCN(CC(=O)Nc1ccccc1OC)C(=O)Cn1cnc2ccccc2c1=O` shows activation factor equal to 1

The measured activation factor associated with `CCOc1cc(CNCCN(C)C)c(Cl)cc1OCC(=O)NCCc1ccccc1` reads 1

Data point: `NC(=O)c1c(NC(=O)CSc2nnc(-c3ccco3)n2N)sc2c1CCCC2` ; activation factor = 0.7

Looking up `COc1ccc2[nH]c(=O)c(CNc3ccc(C)c(C)c3)cc2c1` , I see its activation factor listed as 0.8

// activation factor lookup, compound = `O=C(CCN1c2ccccc2Sc2ccccc21)Nc1ccccc1` , result: 0.2

###

# TESTED TARGET: Cytochrome P450 2C19 (Homo sapiens)
# EXPERIMENTAL PROTOCOL: enhancers of cytochrome P450 2C19 turnover – biochemical, luminescence, primary screen (AID 1025);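 note: 0 = wells with 2.5 mM tranylcypromine and 1 = vehicle-only wells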
# CONDITION DESCRIPTION: recombinant CYP2C19, luciferin-H EGE luminescence; at 5 µM; active compounds read high; 0 = fully inhibited enzyme, 1 = untreated enzyme
The campaign covered roughly 96,000 compounds. Fewer than 10 were called active. Not all results are given here.
ATTRIBUTE MEASURED: activation factor
Lab note: record just the number, no unit beside it.

Record excerpt, results attached:
GET /value?item= `Cc1ccc(-n2c(SCC(=O)NCc3ccc4c(c3)OCO4)nnc2-c2cccnc2)c(C)c1` &field=activation factor returns 0.7

The reported value for `O=c1[nH]c(CCl)nc2cc(-c3ccc(Cl)cc3)sc12` in terms of activation factor is 0.7

Noted for `CC(C)(C)c1cc2cccnc2n1Cc1cccc(F)c1` : its activation factor reads 0.9

Entry `CC1(C)CC(=O)C(C=NCCN2CCN(C(=S)Nc3cccc(Cl)c3)CC2)=C(O)C1` , activation factor reported as 0.4

Form: compound = `Cc1ccc(/C=N\n2c(-c3ccccc3)n[nH]c2=S)s1` ; activation factor = 1

***
# activation factor of CN=C1SC(CC(=O)Nc2ccc(C(=O)O)cc2)C(=O)N1C (stereo unspecified) = 1

Measured activation factor of `O=C(COc1cc(Cl)c(Cl)cc1Cl)NC(=O)NC1CCCC1` : 1.1

The recorded activation factor for `Cc1cc(=O)[nH]c(SCc2cccc(F)c2)n1` is 0.9

Kindly note the recorded activation factor for CCOCCCNC(=O)C(NC(=O)CNC(=O)c1ccccc1)c1ccc(C)cc1 (stereo unspecified) , which is 1.1

Lab note: measured activation factor of `COc1ccc(N(CC(=O)N/N=C/c2cccs2)S(=O)(=O)c2ccc(OC)c(OC)c2)cc1` was 0

Summary for this compound, `ONC(=Nc1ccccc1)c1ccccc1Cl` : activation factor is 0.7
